Target: T1, PUF4 RNA-binding domain (Saccharomyces cerevisiae, UniProt P25339 537-888)
T1 sequence: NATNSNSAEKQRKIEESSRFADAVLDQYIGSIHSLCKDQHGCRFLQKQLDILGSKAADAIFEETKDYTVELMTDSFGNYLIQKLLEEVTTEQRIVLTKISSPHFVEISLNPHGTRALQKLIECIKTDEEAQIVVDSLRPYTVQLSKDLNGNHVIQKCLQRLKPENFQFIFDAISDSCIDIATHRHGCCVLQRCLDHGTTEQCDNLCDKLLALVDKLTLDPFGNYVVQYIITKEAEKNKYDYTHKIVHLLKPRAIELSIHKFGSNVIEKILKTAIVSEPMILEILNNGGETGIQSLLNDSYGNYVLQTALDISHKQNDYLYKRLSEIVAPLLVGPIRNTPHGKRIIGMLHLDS
Test: Mg; RNA-MaP; 20 mM Na-HEPES pH 7.4, 30 mM KOAc, 0.75 mM MgCl2, 0.1% Tween-20, 5% glycerol, 0.1 mg/mL BSA, 2 mM DTT; 25 C; 0.0125-409.6 nM protein
Conditions: tags: N-His6-TEV cleaved; C-SNAP kept, Cy3B-labelled; label: tethered on chip by stalled RNA polymerase
pKd: −log10 of the molar value.
Label Yes when pKd is at or above 8; otherwise label No.

1. UCUCUUUGUAAUAUAUUCUCUU (ssRNA) [Ic_S1_P5E.1_K5.1_C5.1_H5.1_A5.1_[T5A]_F5.1_[T9A]_[A10T]_T5.1]	Yes
2. Ie_S4_P4E.1_K4.1_C4.1_H4.1_[+1TTT]_A4.1_F4.1_T4.1 (ssRNA) RNA: UUUGACAACUGAUCGUUCUUUCUUUUUGUAUAUUAUUCUUUCUCGAUCAGUUGUCUUU	Yes
3. Ib_S4_P4E.1_K4.1_C4.1_H4.1_[T1C]_A4.1_[A6T]_F4.1_T4.1 (ssRNA) RNA: UUUGACAACUGAUCGUUCUUUCUCGUAUUUUAUUCUUUCUCGAUCAGUUGUCUUU	No
4. UCUCUUAUUAUAUAUUACUUCUCUU (ssRNA) [Id_ii_S1_P4E.3_K4.2_C4.2_[C-2A]_H4.2_A4.1_F4.1_T4.2_[G10C]]	No
5. Ic_S4_P5E.1_K5.1_C5.1_H5.1_A5.1_[T5G]_[T6C]_F5.1_[T8G]_[A10C]_T5.1 (ssRNA) RNA: UUUGACAACUGAUCGUUCUUUCUUGUAGCAGUCUUCUUUCUCGAUCAGUUGUCUUU	No
6. ACAAACCAUAUAUUAUUACAACAAAC (ssRNA) [Id_ii_S3_P5E.3_K5.2_C5.2_[T-1A]_H5.2_A5.1_F5.1_T5.2_[T11C]]	No
7. Id_i_S2_P3E.7_K3.3_C3.3_[T-3G]_[C-2T]_[T-1A]_H3.3_A3.1_F3.1_T3.2 (ssRNA) RNA: UUUGAUUAAUAUGAUAUCGUUCUUUCUGUAACACUAUAUAUUCUUUCUCGAUAUCAUAUUAAUCUUU	Yes
8. Ie_S2_P4E.1_K4.1_C4.1_H4.1_[+4CCCTT]_A4.1_F4.1_T4.1 (ssRNA) RNA: UUUGAUUAAUAUGAUAUCGUUCUUUCUUGUACCCUUUAUUAUUCUUUCUCGAUAUCAUAUUAAUCUUU	Yes
9. UCUCUUUGUAUAUAGUUCUCUU (ssRNA) [Ic_S1_P5E.1_K5.1_C5.1_H5.1_A5.1_[T6A]_[A7T]_F5.1_[T8A]_[T9G]_[A10T]_T5.1]	Yes
10. Ib_S4_P3E.1_K3.1_C3.1_H3.1_A3.1_F3.1_[T7G]_[A8C]_T3.1 (ssRNA) RNA: UUUGACAACUGAUCGUUCUUUCUUGUAUAGCUUCUUUCUCGAUCAGUUGUCUUU	No
11. Ic_S2_P5E.1_K5.1_C5.1_H5.1_A5.1_[T5G]_[T6C]_F5.1_[T8C]_[T9C]_[A10G]_T5.1 (ssRNA) RNA: UUUGAUUAAUAUGAUAUCGUUCUUUCUUGUAGCACCGUUCUUUCUCGAUAUCAUAUUAAUCUUU	No
12. UCUCUUAAACACUUAUUAACUCUCUU (ssRNA) [Id_ii_S1_P5E.4_K5.3_C5.2_[C-2A]_[T-1A]_H5.3_A5.1_F5.1_T5.2_[T11A]_[A12C]]	No
13. Id_ii_S2_P3E.3_K3.2_C3.2_[C-2T]_[T-1G]_H3.2_A3.1_F3.1_T3.2_[A10C] (ssRNA) RNA: UUUGAUUAAUAUGAUAUCGUUCUUUCUUGUAUAUAUAUCUUCUUUCUCGAUAUCAUAUUAAUCUUU	Yes
14. UCUCUUUGUAUUUUCUCUCUU (ssRNA) [Ic_S1_P4E.1_K4.1_C4.1_H4.1_A4.1_[A6T]_F4.1_[A9C]_T4.1]	No
15. ACAAACUGACACUAUAUUACAAAC (ssRNA) [Id_ii_S3_P3E.4_K3.3_C3.2_[C-2T]_[T-1G]_H3.3_A3.1_F3.1_T3.2_[A10T]]	No
16. Ib_S4_P4E.1_K4.1_C4.1_H4.1_[T3C]_A4.1_[T7C]_F4.1_T4.1 (ssRNA) RNA: UUUGACAACUGAUCGUUCUUUCUUGCAUACUAUUCUUUCUCGAUCAGUUGUCUUU	No
17. ACAAACCUACACUAUAGCACAAAC (ssRNA) [Id_ii_S3_P3E.4_K3.3_C3.2_H3.3_A3.1_F3.1_T3.2_[T9G]_[A10C]]	No
18. If_S4_P3E.1_K3.1_C3.1_H3.1_A3.1_F3.1_T3.1 (ssRNA) RNA: UUUGACAACUGAUCGUUCUUUCUUGUAUAUAUUCUUUCUCGAUCAGUUGUCUUU	Yes
